Parameter bioavailability: see the listing below.
Assay: oral bioavailability
Assay type: in vivo
Conditions: mouse, in vivo, po, Oral bioavailability, No inhib., no inhibitors, mean (two individual values)
Square brackets hold non-standard residues; d marks the D form. Peptide text beside a SMILES is read from it. Gly(N-CH2-oxan-4-yl) = O=C(O)CNCC1CCOCC1; NCyclohexylmethylGly = O=C(O)CNCC1CCCCC1; NMeL = CN[C@@H](CC(C)C)C(=O)O; NMeA = CN[CH](C)C(=O)O; NEtG = CCNCC(=O)O
Numeric answer only, unit % assumed.

Which bioavailability reading was recorded for the compound CCN1CC(=O)N[C@@H](CC(C)C)C(=O)N2CCC[C@@H]2C(=O)N(C)[C@@H](CC(C)C)C(=O)N[C@@H](C)C(=O)N(CC2CCOCC2)CC(=O)N[C@@H](Cc2ccccc2)C(=O)N2CCC[C@@H]2C(=O)N(C)[C@@H](CC(C)C)C(=O)N[C@@H](C)C1=O [B09] (cyclo(A[NEtG]L[dP][NMeL]A[Gly(N-CH2-oxan-4-yl)]F[dP][NMeL])) ?
1

// repeat for CCN1CC(=O)NC(CC(C)C)C(=O)N(C)C(C)C(=O)NC(CC(C)C)C(=O)N2CCCC2C(=O)N(CC2CCOCC2)CC(=O)NC(CC(C)C)C(=O)N(C)C(C)C(=O)NC(C)C(=O)N2CCCC2C1=O (stereo not shown) [A03] (cyclo([NEtG]L[NMeA]LP[Gly(N-CH2-oxan-4-yl)]L[NMeA]AP); configuration not given here) and report
1

// repeat for CCN1CC(=O)N[C@@H](CC(C)C)C(=O)N(C)[C@@H](C)C(=O)N[C@@H](CC(C)C)C(=O)N2CCC[C@@H]2C(=O)N(CC2CCOCC2)CC(=O)N[C@@H](CC(C)C)C(=O)N(C)[C@@H](C)C(=O)N[C@@H](Cc2ccccc2)C(=O)N2CCC[C@@H]2C1=O [A09] (cyclo([NEtG]L[NMeA]L[dP][Gly(N-CH2-oxan-4-yl)]L[NMeA]F[dP])) and report
2

More entries:
Which bioavailability reading was recorded for the compound CCN1CC(=O)NC(CC(C)C)C(=O)N(C)C(C)C(=O)NC(CC(C)C)C(=O)N2CCCC2C(=O)N(CC2CCCCC2)CC(=O)NC(CC(C)C)C(=O)N(C)C(C)C(=O)NC(Cc2ccccc2)C(=O)N2CCCC2C1=O (stereo not shown) [A08] (cyclo([NEtG]L[NMeA]LP[NCyclohexylmethylGly]L[NMeA]FP); configuration not given here) ?
5
